# System Tested: human VR1 (Homo sapiens, UniProt Q8NER1)
# Sequence (Q8NER1 whole entry): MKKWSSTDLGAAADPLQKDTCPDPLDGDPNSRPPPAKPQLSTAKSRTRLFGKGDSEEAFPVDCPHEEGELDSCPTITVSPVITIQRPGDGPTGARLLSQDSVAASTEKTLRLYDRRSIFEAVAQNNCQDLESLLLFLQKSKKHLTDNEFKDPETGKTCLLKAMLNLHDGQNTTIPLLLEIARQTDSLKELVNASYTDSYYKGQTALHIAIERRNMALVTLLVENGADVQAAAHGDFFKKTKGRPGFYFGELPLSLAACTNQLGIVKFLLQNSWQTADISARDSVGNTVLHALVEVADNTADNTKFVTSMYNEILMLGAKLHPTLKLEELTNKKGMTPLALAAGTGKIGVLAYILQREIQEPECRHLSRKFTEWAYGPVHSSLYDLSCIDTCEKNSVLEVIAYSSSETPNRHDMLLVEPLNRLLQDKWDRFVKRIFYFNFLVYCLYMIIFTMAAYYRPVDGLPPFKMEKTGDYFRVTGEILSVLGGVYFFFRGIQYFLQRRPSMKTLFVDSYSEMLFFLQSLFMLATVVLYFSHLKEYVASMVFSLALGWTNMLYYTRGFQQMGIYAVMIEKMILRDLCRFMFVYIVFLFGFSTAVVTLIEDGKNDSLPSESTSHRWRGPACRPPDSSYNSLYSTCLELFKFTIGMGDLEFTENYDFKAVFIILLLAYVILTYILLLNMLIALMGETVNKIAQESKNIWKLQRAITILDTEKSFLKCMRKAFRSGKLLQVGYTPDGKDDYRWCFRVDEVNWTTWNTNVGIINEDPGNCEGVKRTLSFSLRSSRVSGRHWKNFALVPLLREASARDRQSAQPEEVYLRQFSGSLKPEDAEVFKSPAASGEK
# Method Notes: Inhibition of Ca2+ entry in cells caused by proton, in rat glioma (C6BU1) cells stably expressing human VR1 (Fura 2 fluorescence)
# Test Context: inhibition of proton-induced Ca2+ entry
Measured Endpoint: IC50

Compound | IC50
CCC(C)(O)c1ccc(NC(=O)c2cccc3c2OCCN3c2ncccc2Cl)cc1 (stereo not drawn) [Example 1-041] | 100 to 1000 nM

Q: I would be grateful if you could share the reported IC50 for Cc1ccc(N2CCOc3c(C(=O)Nc4ccc(Cl)nc4)cccc32)nc1 [Example 1-093] .
Ans: 100 to 1000 nM

Q: I would be grateful if you could share the reported IC50 for O=C(Nc1ccc(Cl)c(Cl)c1)c1cccc2c1OCCN2c1ncc(CO)cc1Cl [Example 2-40] .
Ans: < 100 nM

Recorded values, source patent US8008292B2.
